# test-details: Particle sizing by dynamic light scattering (DynaPro plate reader), in vitro formulations
# Assay type: physicochemical
# condition-description: in vitro formulation b: Cationic lipid/PEG-cholesterol/DSPC/Chol 45/10/15/30 wt %, lipid:siRNA 25:1
reported-property: Size (nm)

[
  {
    "compound": "CCCCC/C=C\\C/C=C\\CCCCCCCCOCC(CCN(CC)CC)OCCCCCCCC/C=C\\C/C=C\\CCCCC (stereo not shown)",
    "reported-property": "Size",
    "readout-value": 113.4
  },
  {
    "compound": "CCCCC/C=C\\C/C=C\\CCCCCCCCOCC(CCN(C)CCN(C)C)OCCCCCCCC/C=C\\C/C=C\\CCCCC (stereo not shown)",
    "reported-property": "Size",
    "readout-value": 105.8
  },
  {
    "compound": "CCCCC/C=C\\C/C=C\\CCCCCCCCOCC(CCN1CCCCC1)OCCCCCCCC/C=C\\C/C=C\\CCCCC (stereo not shown)",
    "reported-property": "Size",
    "readout-value": 96.3
  },
  {
    "compound": "CCCCC/C=C\\C/C=C\\CCCCCCCCOCC(CCN1CCCC1)OCCCCCCCC/C=C\\C/C=C\\CCCCC (stereo not shown)",
    "reported-property": "Size",
    "readout-value": 135.4
  },
  {
    "compound": "CCCCC/C=C\\C/C=C\\CCCCCCCCOCC(CCN1CCC(N(C)C)C1)OCCCCCCCC/C=C\\C/C=C\\CCCCC (stereo not shown)",
    "reported-property": "Size",
    "readout-value": 114.4
  },
  {
    "compound": "CCCCC/C=C\\C/C=C\\CCCCCCCCOCC(CCN(C)CCOC)OCCCCCCCC/C=C\\C/C=C\\CCCCC (stereo not shown)",
    "reported-property": "Size",
    "readout-value": 123.2
  },
  {
    "compound": "CCCCC/C=C\\C/C=C\\CCCCCCCCOCC(CCN(C)C)OCCCCCCCC/C=C\\C/C=C\\CCCCC (stereo not shown)",
    "reported-property": "Size",
    "readout-value": 136.6
  }
]

----------
# test-details: RiboGreen assay of siRNA encapsulation efficiency, in vitro formulations of Lipid-Based Particles
# Type: physicochemical
# condition-description: in vitro formulation a: Cationic lipid/Example 73/DSPC/Chol 45/10/15/30 wt %, lipid:siRNA 25:1
reported-property: % Encapsulation Efficiency (%)

[
  {
    "compound": "CCCCC/C=C\\C/C=C\\CCCCCCCCOC[C@H](CCN(CC)CC)OCCCCCCCC/C=C\\C/C=C\\CCCCC",
    "readout-value": 97.2
  },
  {
    "compound": "CCCCC/C=C\\C/C=C\\CCCCCCCCOC[C@@H](CCN(CC)CC)OCCCCCCCC/C=C\\C/C=C\\CCCCC",
    "readout-value": 86
  },
  {
    "compound": "CCCCC/C=C\\C/C=C\\CCCCCCCCOC[C@H](CCN1CCCC1)OCCCCCCCC/C=C\\C/C=C\\CCCCC",
    "readout-value": 96.9
  },
  {
    "compound": "CCCCC/C=C\\C/C=C\\CCCCCCCCOC[C@@H](CCN1CCCC1)OCCCCCCCC/C=C\\C/C=C\\CCCCC",
    "readout-value": 97.2
  },
  {
    "compound": "CCCCC/C=C\\C/C=C\\CCCCCCCCOCC(CCN(CC)CC)OCCCCCCCC/C=C\\C/C=C\\CCCCC (stereo not shown)",
    "readout-value": 97.2
  },
  {
    "compound": "CCCCC/C=C\\C/C=C\\CCCCCCCCOCC(CCN1CCC(OC)CC1)OCCCCCCCC/C=C\\C/C=C\\CCCCC (stereo not shown)",
    "readout-value": 94.2
  },
  {
    "compound": "CCCCC/C=C\\C/C=C\\CCCCCCCCOCC(CCN(CCOC)CCOC)OCCCCCCCC/C=C\\C/C=C\\CCCCC (stereo not shown)",
    "readout-value": 94.1
  }
]

Values were extracted from patent US20100055169A1.
